- System: Aldehyde reductase AKR1A1 (Rattus norvegicus)
- assayExplanation: Inhibition of Wistar rat kidney aldehyde reductase at 50 uM by spectrophotometric analysis
Grouping key: inhibition. Bins: lower range = under 30%, middle range = from 30% up to 40%, upper range = 40% and over

Q) Which band does O=C(O)CN1CN(Cc2ccc(C(F)(F)F)cc2)S(=O)(=O)c2cc(Cl)cnc21 fall in?
A) upper range

Q) Which band does Cc1cnc2c(c1)S(=O)(=O)N(Cc1cc(F)c(F)cc1F)CN2CC(=O)O fall in?
A) middle range

Q) Which band does O=C(O)CN1CN(Cc2ccc(C(F)(F)F)cc2)S(=O)(=O)c2cc(Br)cnc21 fall in?
A) upper range
